Just for reference, PubChem BioAssay AID2060885 is where these values come from.

test system: NCI-H23 complex spheroids with HUVEC/MSC, viability; test: Anticancer human tumor NCI-H23 cell line growth inhibition [RAS]; details: second compound 0.3 µM; first compound 1 µM; active means viability on the fitted dose curve at most 10% of control; inactive means the rest;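 further: spheroids exposed to compound for 7 days; 100% = DMSO vehicle control viability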
Tick one outcome: label 1 for active, label 0 for inactive

Asked: Could you kindly confirm the outcome this assay logged for CCC(CC)c1cc(NC2CCC(N)C2)n2nccc2n1 (stereo not given) + CCn1c(-c2cccnc2C(C)OC)c2c3cc(ccc31)N1CCOC(CC(NC(=O)C(C(C)C)N(C)C(=O)C3(F)CCN(C(=O)C#CC(C)(C)N(C)C)CC3)C(=O)N3CCCC(N3)C(=O)OCC(C)(C)C2)C1 ?
Given back: label 0

Asked: Fill in: this test's call for CC(Nc1ccc2c(c1)OCCn1cc(N3C(=O)OCC3C(F)F)nc1-2)C(N)=O (stereo not given) + CCn1c(-c2cc(N3CCN(C)CC3)cnc2C(C)OC)c2c3cc(ccc31)-c1csc(n1)CC(NC(=O)C1CC1C)C(=O)N1CCCC(N1)C(=O)OCC(C)(C)C2 is ___
Given back: label 0

Asked: Call for entry CCC(CC)c1cc(NC2CCC(N)C2)n2nccc2n1 (stereo not given) + CCn1c(-c2cc(N3CCN(C)CC3)cnc2C(C)OC)c2c3cc(ccc31)-c1csc(n1)CC(NC(=O)C1CC1C)C(=O)N1CCCC(N1)C(=O)OCC(C)(C)C2 :
Given back: label 0

Asked: Record request — test call for NC1c2ccccc2OC12CCN(c1cnc3c(N4CCCc5ncccc54)n[nH]c3n1)CC2 (stereo not given) + CCn1c(-c2cc(N3CCN(C)CC3)cnc2C(C)OC)c2c3cc(ccc31)-c1csc(n1)CC(NC(=O)C1CC1C)C(=O)N1CCCC(N1)C(=O)OCC(C)(C)C2
Given back: label 1

Asked: Name the outcome recorded for C[C@@H](NC(=O)c1ncnc(N)c1Cl)c1ncc(C(=O)Nc2cc(C(F)(F)F)c(Cl)cn2)s1 + CCn1c(-c2cccnc2C(C)OC)c2c3cc(ccc31)N1CCOC(CC(NC(=O)C(C(C)C)N(C)C(=O)C3(F)CCN(C(=O)C#CC(C)(C)N(C)C)CC3)C(=O)N3CCCC(N3)C(=O)OCC(C)(C)C2)C1 in the assay.
Given back: label 0
